Tested on: M1 macrophages and M2 macrophages differentiated from THP-1 cells
PROTOCOL: Identification of macrophage subtypes differentiated from human cell line THP-1
Format: cell-based
EXPERIMENTAL_CONTEXT: THP-1-derived M1 macrophages; fluorescence intensity peak by flow cytometry in the channel listed per compound (Table 6)
QUANTITY_NAME: Peak position of M1 macrophage

INSERT INTO assay_data (molecule, tgt, reported_value) VALUES
  ('CCOC(=O)CCN1C(=O)/C(=C\c2ccc3c(c2)C2CCCC2N3CC)SC1=S (centres unmarked) [compound (1)]', 'M1 macrophages and M2 macrophages differentiated from THP-1 cells', 58.1),
  ('CCN1c2ccc(/C=C3/SC(=S)N(CCC(=O)O)C3=O)cc2C2CCCC21 (centres unmarked) [(15)]', 'M1 macrophages and M2 macrophages differentiated from THP-1 cells', 5.62),
  ('O=C(O)CCN1C(=O)/C(=C\c2ccc3c(c2)C2CCCC2N3Cc2ccccc2)SC1=S (centres unmarked) [compound (3)]', 'M1 macrophages and M2 macrophages differentiated from THP-1 cells', 9.63),
  ('O=C(O)CN1C(=O)/C(=C\c2cc(Br)c3c(c2)C2CCCC2N3c2ccc(Br)cc2)SC1=S (centres unmarked) [(12)]', 'M1 macrophages and M2 macrophages differentiated from THP-1 cells', 37.4),
  ('COC(=O)CCC(C(=O)OC)N1C(=O)/C(=C\c2ccc3c(c2)C2CCCC2N3c2ccc(OC)cc2)SC1=S (centres unmarked) [compound (4)]', 'M1 macrophages and M2 macrophages differentiated from THP-1 cells', 26.5);

---

Test system: M1 macrophages and M2 macrophages differentiated from mouse bone marrow cells
PROTOCOL: Subtype identification by staining and flow cytometry of M1 and M2 macrophages differentiated from mouse bone marrow cells
Type: cell-based, Balb/c mouse
EXPERIMENTAL_CONTEXT: M1 vs M2 macrophages from mouse bone marrow cells; general formula (6) dyes (Table 7)
QUANTITY_NAME: Resolution ratio R

INSERT INTO assay_data (compound, tgt, reported_value) VALUES
  ('CC1(C)C(/C=C/C=C/C=C/C=C2\N(CCCCCC(=O)[O-])c3ccccc3C2(C)C)=[N+](CCCCCC(=O)[O-])c2ccccc21.[Na+] [(91)]', 'M1 macrophages and M2 macrophages differentiated from mouse bone marrow cells', 0.476),
  ('CN1/C(=C\C=C\C2=[N+](C)c3ccccc3C2(C)C)C(C)(C)c2ccccc21 [(95)]', 'M1 macrophages and M2 macrophages differentiated from mouse bone marrow cells', 0.421),
  ('CCN1/C(=C\C=C\c2oc3ccccc3[n+]2CC)Oc2ccccc21 [(98)]', 'M1 macrophages and M2 macrophages differentiated from mouse bone marrow cells', 0.507),
  ('CCN1/C(=C\C=C\c2sc3ccccc3[n+]2CC)Sc2ccccc21 [(100)]', 'M1 macrophages and M2 macrophages differentiated from mouse bone marrow cells', 0.372),
  ('CCN1/C(=C\C=C\c2ccc3ccccc3[n+]2CC)C=Cc2ccccc21 [(104)]', 'M1 macrophages and M2 macrophages differentiated from mouse bone marrow cells', 0.698),
  ('CCN1/C(=C\C=C\C2=[N+](CC)c3ccccc3C23CCCCC3)C2(CCCCC2)c2ccccc21 [(99)]', 'M1 macrophages and M2 macrophages differentiated from mouse bone marrow cells', 0.673),
  ('CCC1=C(CC)c2cc3[nH]c(cc4nc(cc5[nH]c(cc1n2)c(CC)c5CC)C(CC)=C4CC)c(CC)c3CC [(1), reference compound]', 'M1 macrophages and M2 macrophages differentiated from mouse bone marrow cells', 0.006);
